study.target: KDR (Homo sapiens, UniProt P35968)
Sequence (P35968 whole entry): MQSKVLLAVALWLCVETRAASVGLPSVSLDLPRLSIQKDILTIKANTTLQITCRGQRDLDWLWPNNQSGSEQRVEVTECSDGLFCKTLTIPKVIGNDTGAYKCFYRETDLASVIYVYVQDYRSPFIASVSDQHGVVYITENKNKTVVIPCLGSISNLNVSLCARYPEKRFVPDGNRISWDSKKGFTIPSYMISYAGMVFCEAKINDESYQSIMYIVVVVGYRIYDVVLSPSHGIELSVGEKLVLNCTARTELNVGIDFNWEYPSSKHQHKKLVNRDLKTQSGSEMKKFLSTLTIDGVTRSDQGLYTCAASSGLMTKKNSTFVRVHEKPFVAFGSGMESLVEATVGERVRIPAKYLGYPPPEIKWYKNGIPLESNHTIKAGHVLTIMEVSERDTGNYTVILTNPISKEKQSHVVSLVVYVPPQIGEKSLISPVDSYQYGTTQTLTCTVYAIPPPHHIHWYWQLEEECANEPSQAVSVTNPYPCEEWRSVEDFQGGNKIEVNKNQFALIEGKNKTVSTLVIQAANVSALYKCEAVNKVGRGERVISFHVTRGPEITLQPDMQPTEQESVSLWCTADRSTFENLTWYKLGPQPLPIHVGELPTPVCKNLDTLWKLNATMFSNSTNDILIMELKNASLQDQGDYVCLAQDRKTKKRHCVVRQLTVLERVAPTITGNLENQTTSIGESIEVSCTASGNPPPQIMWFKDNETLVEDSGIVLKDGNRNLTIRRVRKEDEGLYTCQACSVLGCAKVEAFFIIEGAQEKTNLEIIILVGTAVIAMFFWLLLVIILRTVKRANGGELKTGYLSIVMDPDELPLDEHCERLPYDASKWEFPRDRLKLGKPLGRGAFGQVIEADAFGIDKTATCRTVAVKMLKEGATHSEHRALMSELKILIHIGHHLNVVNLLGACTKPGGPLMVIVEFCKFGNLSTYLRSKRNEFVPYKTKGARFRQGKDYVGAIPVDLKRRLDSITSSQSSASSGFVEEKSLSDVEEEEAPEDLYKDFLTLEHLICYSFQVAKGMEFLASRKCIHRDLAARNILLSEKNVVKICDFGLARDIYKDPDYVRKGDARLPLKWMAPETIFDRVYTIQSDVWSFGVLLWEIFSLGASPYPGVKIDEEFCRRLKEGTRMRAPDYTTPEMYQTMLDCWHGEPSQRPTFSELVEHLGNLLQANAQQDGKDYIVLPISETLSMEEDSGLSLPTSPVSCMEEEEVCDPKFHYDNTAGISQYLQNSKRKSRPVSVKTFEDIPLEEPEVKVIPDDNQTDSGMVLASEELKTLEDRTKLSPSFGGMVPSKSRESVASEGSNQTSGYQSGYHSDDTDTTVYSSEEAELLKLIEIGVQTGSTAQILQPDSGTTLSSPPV
test.name: biochemical
Design: species or system HEK293/K-562/placenta mixed human extract; Kinobeads chemoproteomic competition binding, quantified by TMT LC-MS/MS, dose response up to 20 uM
pIC50: −log10 of the molar value.
metric: pIC50

Look up pIC50 for this compound: COc1ccccc1-c1n[nH]c2nc(N[C@H]3CC[C@H](NS(=O)(=O)CCC(F)(F)F)CC3)nc(OC)c12
≤ 4.70

###

study.target: SRC (Homo sapiens)
Sequence (P12931 whole entry): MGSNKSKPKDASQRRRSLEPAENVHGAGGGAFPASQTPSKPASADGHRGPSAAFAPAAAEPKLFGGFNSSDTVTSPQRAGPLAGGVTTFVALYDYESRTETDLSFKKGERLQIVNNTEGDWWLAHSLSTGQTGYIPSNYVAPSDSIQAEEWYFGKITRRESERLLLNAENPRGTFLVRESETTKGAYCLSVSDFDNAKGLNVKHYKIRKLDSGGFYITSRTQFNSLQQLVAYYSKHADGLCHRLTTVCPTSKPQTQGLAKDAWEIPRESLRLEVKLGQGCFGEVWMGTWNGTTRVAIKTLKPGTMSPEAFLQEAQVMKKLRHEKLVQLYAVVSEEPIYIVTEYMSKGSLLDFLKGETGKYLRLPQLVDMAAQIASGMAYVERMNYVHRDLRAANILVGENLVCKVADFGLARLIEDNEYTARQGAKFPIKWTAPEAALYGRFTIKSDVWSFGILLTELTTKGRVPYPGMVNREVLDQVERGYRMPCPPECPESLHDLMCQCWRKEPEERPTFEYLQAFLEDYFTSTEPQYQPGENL
test.name: biochemical
Parameters: species or system HEK293/K-562/placenta mixed human extract; Kinobeads chemoproteomic competition binding, quantified by TMT LC-MS/MS, dose response up to 20 uM
metric: IC50

Look up IC50 for this compound: COc1nc(N[C@H]2CC[C@H](NS(=O)(=O)CC(C)C)CC2)nc2[nH]nc(N3CCOC[C@H]3C)c12
≥ 20 µM
